These measurements were taken from patent US9458141B2.

Listed below: AC50 values for each entry.
# assayedSystem: human TSHR (Homo sapiens, UniProt P16473)
# Construct: expressed in transfected cells
# Sequence (P16473 21-764): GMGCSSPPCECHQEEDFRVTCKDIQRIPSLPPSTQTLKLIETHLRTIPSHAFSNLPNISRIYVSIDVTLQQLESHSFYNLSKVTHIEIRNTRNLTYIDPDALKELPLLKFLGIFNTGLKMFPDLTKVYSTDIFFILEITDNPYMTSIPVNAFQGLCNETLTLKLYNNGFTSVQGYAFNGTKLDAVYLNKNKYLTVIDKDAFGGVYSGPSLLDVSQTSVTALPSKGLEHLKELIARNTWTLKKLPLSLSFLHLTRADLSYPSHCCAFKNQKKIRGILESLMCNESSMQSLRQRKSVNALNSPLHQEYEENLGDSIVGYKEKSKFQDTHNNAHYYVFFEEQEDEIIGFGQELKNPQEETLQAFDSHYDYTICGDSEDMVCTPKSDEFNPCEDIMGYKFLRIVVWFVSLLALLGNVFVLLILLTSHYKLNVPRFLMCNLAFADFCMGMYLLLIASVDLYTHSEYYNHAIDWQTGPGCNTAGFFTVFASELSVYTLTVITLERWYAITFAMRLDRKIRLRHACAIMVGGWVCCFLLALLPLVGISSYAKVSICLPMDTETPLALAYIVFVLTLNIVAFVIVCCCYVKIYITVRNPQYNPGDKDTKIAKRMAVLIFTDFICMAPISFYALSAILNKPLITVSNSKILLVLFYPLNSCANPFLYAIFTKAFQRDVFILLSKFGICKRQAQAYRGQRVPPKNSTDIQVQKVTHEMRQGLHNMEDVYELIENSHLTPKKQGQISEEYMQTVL
# experimentDescription: Homogeneous Time Resolved Fluorescence (HTRF) cAMP assay, TSHR cell line
# Assay type: cell-based
# conditionNotes: HTRF cAMP, TSHR cell line, 30 minute incubation; read-out: AC50
Answer format: numeric, µM implied, no suffix.

Solved entries:
                                   compound                             assayedsystem  readingunit  reportedvalue
0  COc1ccc(CN(Cc2ccccc2)C(=O)c2cccc(C#N)c2)cc1COc1ccc(NC(C)=O)cc1 [Structure 75]  human TSHR (Homo sapiens, UniProt P16473)           µM             20
1  COc1ccc(C(=O)N(Cc2ccccc2)Cc2ccco2)c(O)c1 [Structure 118]  human TSHR (Homo sapiens, UniProt P16473)           µM           28.2
2  COc1ccc(C2Nc3ccccc3C(=O)N2Cc2ccccn2)cc1COc1ccc(NC(C)=O)cc1 (stereo not drawn) [Structure 115]  human TSHR (Homo sapiens, UniProt P16473)           µM           39.8
3  COc1ccc(-c2nc3ccccc3c(=O)n2Cc2ccccc2)cc1CNc1ccc(CC(C)=O)cc1  human TSHR (Homo sapiens, UniProt P16473)           µM           25.1
4  COc1ccc(-c2nc3ccccc3c(=O)n2Cc2ccccc2)cc1COc1ccc(NC(C)=O)cc1 [Structure 95]  human TSHR (Homo sapiens, UniProt P16473)           µM           12.6
5  COc1ccc(C2Nc3ccccc3C(=O)N2Cc2ccccc2)cc1COc1cccc(C)c1 (stereo not drawn) [Structure 200]  human TSHR (Homo sapiens, UniProt P16473)           µM           28.2
6  COc1ccc(C(=O)N(Cc2ccccc2)Cc2ccccc2)cc1COc1ccc(NC(C)=O)cc1 [Structure 120]  human TSHR (Homo sapiens, UniProt P16473)           µM           15.8
7  CCC(=O)Nc1ccc(OCc2cc(C3Nc4ccccc4C(=O)N3Cc3ccccc3)ccc2OC)cc1 (stereo not drawn) [Structure 177]  human TSHR (Homo sapiens, UniProt P16473)           µM           5.62
8  COc1ccc(-c2nc3ccc(NC(C)=O)cc3c(=O)n2Cc2cccc(Cl)c2)cc1COc1ccc(NC(C)=O)cc1 [Structure 155]  human TSHR (Homo sapiens, UniProt P16473)           µM           12.6
9  COc1ccc(C(=O)N(Cc2ccccc2)Cc2ccc(OC)c(COc3ccc(NC(C)=O)cc3)c2)cc1 [Structure 45]  human TSHR (Homo sapiens, UniProt P16473)           µM           14.1

Consider the record given below.
Entry COc1ccc(C2Nc3ccccc3C(=O)N2Cc2ccc(C(F)(F)F)cc2)cc1COc1ccc(NC(C)=O)cc1 (stereo not drawn) [Structure 234] : reported AC50 = ?
8.91

* * *

Listed next: entries and their corresponding Maximum Activity compared to TSH.
# assayedSystem: human TSHR (Homo sapiens, UniProt P16473)
# Construct: expressed in transfected cells
# experimentDescription: Homogeneous Time Resolved Fluorescence (HTRF) cAMP assay, TSHR cell line
# Type: cell-based
# conditionNotes: 100% activity = response of 30 mU/ml TSH, 0% = DMSO control; in %
# print the numeric value only

Guide cases for Maximum Activity compared to TSH, answers given:
>>> print(df.to_string())
                                   compound                             assayedsystem  reportedvalue
0  COc1cccc(CN2C(=O)c3ccccc3NC2c2ccc(OC)c(COc3ccc(NC(C)=O)cc3)c2)c1 (stereo not drawn) [Structure 46]  human TSHR (Homo sapiens, UniProt P16473)         182.52
1  O=C(c1ccccc1O)N(Cc1ccccc1)Cc1ccccc1 [Structure 129]  human TSHR (Homo sapiens, UniProt P16473)          51.77
2  COc1ccc(C2Nc3ccccc3C(=O)N2Cc2ccccc2)cc1CSc1ccc(NC(C)=O)cc1 (stereo not drawn) [Structure 22]  human TSHR (Homo sapiens, UniProt P16473)         463.89
3  COc1ccc(C2N(Cc3ccccc3)C(=O)c3ccccc3N2C)cc1COc1ccc(NC(C)=O)cc1 (stereo not drawn) [Structure 267]  human TSHR (Homo sapiens, UniProt P16473)          24.50
4  COc1ccc(-c2nc3ccc(NC(C)=O)cc3c(=O)n2Cc2cccc(Cl)c2)cc1COc1ccc(NC(C)=O)cc1 [Structure 155]  human TSHR (Homo sapiens, UniProt P16473)          25.50

Query: Maximum Activity compared to TSH; subject: COc1ccc(C2Nc3ccccc3C(=O)N2Cc2ccccc2)cc1COc1ccc(NC(C)=O)cc1 (single isomer, unassigned) [Structure 2]
217.29

Please look up its Maximum Activity compared to TSH: COc1ccc(C2Nc3ccccc3C(=O)N2Cc2ccccc2)cc1COc1ccc(NC(C)=O)cc1 (single isomer, unassigned) [Structure 7]
152.47
